Items are presented alongside their recorded solubility change mitosis (log2).
tested on: HeLa Kyoto; assay: solubility change mitosis vs G1/S (difference of NP-40 vs SDS log2 ratios) (log2 ratio difference); higher = more soluble in mitosis
Give a plain numeric answer without units written out.

>  <inputSequence>
MAAPSGGWNGVGASLWAALLLGAVALRPAEAVSEPTTVAFDVRPGGVVHSFSHNVGPGDKYTCMFTYASQGGTNEQWQMSLGTSEDHQHFTCTIWRPQGKSYLYFTQFKAEVRGAEIEYAMAYSKAAFERESDVPLKTEEFEVTKTAVAHRPGAFKAELSKLVIVAKASRTEL [MYDGF]

>  <systemUnderTest>
HeLa Kyoto

>  <endpointValue>
-0.192

$$$$

Kindly review the next sequence as well.
Ask: Answer with the recorded solubility change mitosis (log2) of MSFLQDPSFFTMGMWSIGAGALGAAALALLLANTDVFLSKPQKAALEYLEDIDLKTLEKEPRTFKAKELWEKNGAVIMAVRRPGCFLCREEAADLSSLKSMLDQLGVPLYAVVKEHIRTEVKDFQPYFKGEIFLDEKKKFYGPQRRKMMFMGFIRLGVWYNFFRAWNGGFSGNLEGEGFILGGVFVVGSGKQGILLEHREKEFGDKVNLLSVLEAAKMIKPQTLASEKK [FAM213A] only.
Reply: -0.0729

----------
system: HeLa Kyoto; experiment: melting temperature (median over replicates), in situ; higher = more thermally stable; conditions: cell cycle stage: G1/S
measurementType: melting temperature (°C)
Report the figure in °C without appending any unit label.

Examples with answers:
>  <inputSequence>
MEESGYESVLCVKPDVHVYRIPPRATNRGYRAAEWQLDQPSWSGRLRITAKGQMAYIKLEDRTSGELFAQAPVDQFPGTAVESVTDSSRYFVIRIEDGNGRRAFIGIGFGDRGDAFDFNVALQDHFKWVKQQCEFAKQAQNPDQGPKLDLGFKEGQTIKLNIANMKKKEGAAGNPRVRPASTGGLSLLPPPPGGKTSTLIPPPGEQLAVGGSLVQPAVAPSSGGAPVPWPQPNPATADIWGDFTKSTGSTSSQTQPGTGWVQF [NECAP2]

>  <systemUnderTest>
HeLa Kyoto

>  <melting temperature [°C]>
52.6

$$$$
>  <inputSequence>
MAAAGGGGGGAAAAGRAYSFKVVLLGEGCVGKTSLVLRYCENKFNDKHITTLQASFLTKKLNIGGKRVNLAIWDTAGQERFHALGPIYYRDSNGAILVYDITDEDSFQKVKNWVKELRKMLGNEICLCIVGNKIDLEKERHVSIQEAESYAESVGAKHYHTSAKQNKGIEELFLDLCKRMIETAQVDERAKGNGSSQPGTARRGVQIIDDEPQAQTSGGGCCSSG [RAB21]

>  <systemUnderTest>
HeLa Kyoto

>  <melting temperature [°C]>
60.4

$$$$
>  <inputSequence>
MRSGGRGRPRLRLGERGLMEPLLPPKRRLLPRVRLLPLLLALAVGSAFYTIWSGWHRRTEELPLGRELRVPLIGSLPEARLRRVVGQLDPQRLWSTYLRPLLVVRTPGSPGNLQVRKFLEATLRSLTAGWHVELDPFTASTPLGPVDFGNVVATLDPRAARHLTLACHYDSKLFPPGSTPFVGATDSAVPCALLLELAQALDLELSRAKKQAAPVTLQLLFLDGEEALKEWGPKDSLYGSRHLAQLMESIPHSPGPTRIQAIELFMLLDLLGAPNPTFYSHFPRTVRWFHRLRSIEKRLHRLNLLQSHPQEVMYFQPGEPFGSVEDDHIPFLRRGVPVLHLISTPFPAVWHTPADTEVNLHPPTVHNLCRILAVFLAEYLGL [QPCTL]

>  <systemUnderTest>
HeLa Kyoto

>  <melting temperature [°C]>
51.9

$$$$
>  <inputSequence>
MAATFFGEVVKAPCRAGTEDEEEEEEGRRETPEDREVRLQLARKREVRLLRRQTKTSLEVSLLEKYPCSKFIIAIGNNAVAFLSSFVMNSGVWEEVGCAKLWNEWCRTTDTTHLSSTEAFCVFYHLKSNPSVFLCQCSCYVAEDQQYQWLEKVFGSCPRKNMQITILTCRHVTDYKTSESTGSLPSPFLRALKTQNFKDSACCPLLEQPNIVHDLPAAVLSYCQVWKIPAILYLCYTDVMKLDLITVEAFKPILSTRSLKGLVKNIPQSTEILKKLMTTNEIQSNIYT [PSMG1]

>  <systemUnderTest>
HeLa Kyoto

>  <melting temperature [°C]>
54.7

$$$$

Ask: Answer with the recorded melting temperature of MGCDGGTIPKRHELVKGPKKVEKVDKDAELVAQWNYCTLSQEILRRPIVACELGRLYNKDAVIEFLLDKSAEKALGKAASHIKSIKNVTELKLSDNPAWEGDKGNTKGDKHDDLQRARFICPVVGLEMNGRHRFCFLRCCGCVFSERALKEIKAEVCHTCGAAFQEDDVIMLNGTKEDVDVLKTRMEERRLRAKLEKKTKKPKAAESVSKPDVSEEAPGPSKVKTGKPEEASLDSREKKTNLAPKSTAMNESSSGKAGKPPCGATKRSIADSEESEAYKSLFTTHSSAKRSKEESAHWVTHTSYCF [RTFDC1] only.
Reply: 47.6

Ask: Answer with the recorded melting temperature of MREYKVVVLGSGGVGKSALTVQFVTGSFIEKYDPTIEDFYRKEIEVDSSPSVLEILDTAGTEQFASMRDLYIKNGQGFILVYSLVNQQSFQDIKPMRDQIIRVKRYERVPMILVGNKVDLEGEREVSYGEGKALAEEWSCPFMETSAKNKASVDELFAEIVRQMNYAAQPNGDEGCCSACVIL [RAP2B] only.
Reply: 59.2
